# measured on: Forkhead box protein O3 (Homo sapiens, UniProt O43524)
# Sequence (O43524 whole entry): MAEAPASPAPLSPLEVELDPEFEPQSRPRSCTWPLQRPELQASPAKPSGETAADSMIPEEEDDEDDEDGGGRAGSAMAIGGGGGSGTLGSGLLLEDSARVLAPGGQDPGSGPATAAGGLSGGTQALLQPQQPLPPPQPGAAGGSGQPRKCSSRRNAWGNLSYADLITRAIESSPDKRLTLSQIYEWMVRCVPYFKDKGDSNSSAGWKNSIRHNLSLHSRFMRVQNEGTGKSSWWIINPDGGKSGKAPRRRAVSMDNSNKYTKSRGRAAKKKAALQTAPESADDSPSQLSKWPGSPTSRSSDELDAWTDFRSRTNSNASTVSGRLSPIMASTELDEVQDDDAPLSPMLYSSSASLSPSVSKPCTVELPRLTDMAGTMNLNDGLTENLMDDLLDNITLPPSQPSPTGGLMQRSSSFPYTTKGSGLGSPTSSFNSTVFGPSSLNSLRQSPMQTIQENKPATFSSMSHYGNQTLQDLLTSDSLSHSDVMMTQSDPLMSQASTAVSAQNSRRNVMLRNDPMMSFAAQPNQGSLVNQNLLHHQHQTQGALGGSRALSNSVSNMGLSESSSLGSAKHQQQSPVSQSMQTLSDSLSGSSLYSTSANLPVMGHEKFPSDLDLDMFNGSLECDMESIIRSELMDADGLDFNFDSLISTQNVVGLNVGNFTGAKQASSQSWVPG
# protocol text: Induction of nuclear translocation of FOXO3 in human U2OS cells by inverted microscopic analysis
endpoint name: pEC50
// field semantics: pEC50 = negative decimal log of concentration (mol/L)

Item COc1cc(/C=C/C(=O)N2CCC=CC2=O)cc(OC)c1OC has what recorded pEC50?
4.42

Where do these numbers come from? They come from BindingDB's records for PubMed 38436272.
